- assay system: T1, mouse VEGF (Peprotech) (mouse, UniProt Q00731-2 27-190, limits assumed)
- T1 construct: also called Mouse VEGF-A
- T1 sequence (looked up): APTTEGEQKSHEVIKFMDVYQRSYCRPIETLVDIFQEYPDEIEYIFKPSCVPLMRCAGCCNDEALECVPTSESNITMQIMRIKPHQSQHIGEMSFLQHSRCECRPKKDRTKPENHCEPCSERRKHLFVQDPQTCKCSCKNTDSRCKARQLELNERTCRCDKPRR
- protocol notes: ELISA; antigen coated 1 µg/ml; Fab 10 µg/mL; 9E10-peroxidase
measurement label: absorbance at 492 nm
One number for each entry.

# binder, absorbance at 492 nm
data = [
    ("Fab L3H7 (Fab, V domains shown, Entries lack the six histidines and c-myc of the heavy chain) VH: QVQLVQSGAEVKKPGESLKISCKGSGYSFTSYWIGWVRQMPGKGLEWMGIIYPGDSDTRYSPSFQGQVTISADKSISTAYLQWSSLKASDTAMYYCARPYATDTRIWGQGTMVTVSS VL: QAVVTQEPSLTVSPGGTVTLTCASSTGAVTSGNYPNWFQQRPGQPPRALIYSTSNKHSWTPARFSGSLLGGKAALTLSGAQPEDEAEYYCRLSYDLARPVFGGGTKLTVLG", 1.1),
    ("Fab 2H1-32 (Fab, V domains shown) VH: QVQLVQSGAEVKKPGESLKISCKGSGYSFTSYWIGWVRQMPGKGLEWMGIIYPGDSDTRYSPSFQGQVTISADKSISTAYLQWSSLKASDTAMYYCARLVVRDTEIWGQGTMVTVSS VL: QAVVTQEPSLTVSPGGTVTLTCASSIGAVTSGNYPNWFQQRPGQPPRALIYSTSNKHSWTPARFSGSLLGGKAALTLSGAQPEDEAEYYCLLSYSGARPVFGGGTKLTVLG", 0.091),
    ("Fab L3H6 (Fab, V domains shown, The entries are the mature chains without the six histidines and c-myc that the heavy chain carried at its C-terminus in the assay) VH: QVQLVQSGAEVKKPGESLKISCKGSGYSFTSYWIGWVRQMPGKGLEWMGIIYPGDSDTRYSPSFQGQVTISADKSISTAYLQWSSLKASDTAMYYCARQGTHNRKIWGQGTMVTVSS VL: QAVVTQEPSLTVSPGGTVTLTCASSTGAVTSGNYPNWFQQRPGQPPRALIYSTSNKHSWTPARFSGSLLGGKAALTLSGAQPEDEAEYYCRLSYDLARPVFGGGTKLTVLG", 1.19),
]

Consider the additional binder presented here.
Input line: May I ask what absorbance at 492 nm has been recorded for Fab L3H5 (Fab, V domains shown, Entries lack the six histidines and c-myc of the heavy chain) VH: QVQLVQSGAEVKKPGESLKISCKGSGYSFTSYWIGWVRQMPGKGLEWMGIIYPGDSDTRYSPSFQGQVTISADKSISTAYLQWSSLKASDTAMYYCARLVHRYRAIWGQGTMVTVSS VL: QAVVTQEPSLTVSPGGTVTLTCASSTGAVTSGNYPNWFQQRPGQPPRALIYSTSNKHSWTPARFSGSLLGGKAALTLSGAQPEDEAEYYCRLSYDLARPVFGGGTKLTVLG ?
Output line: 1.09
